System: THP-1 cells
Test: Cytotoxicity assay, THP-1 cell viability (CellTiter-Glo)
Type: cell-based, human
Settings: 3 days
Description: The cytotoxicity of compounds was determined by measuring THP-1 cell viability after 3 days in the presence of test compounds. Compounds were prepared as 10-point serial dilutions in DMSO. […] Assay plates were incubated for 3 days at 37° C., 5% CO2, growth was measured using the CellTiter-Glo® Luminescent Cell Viability Assay (Promega) which uses ATP as an indicator of cell viability. Relative luminescent units (RLU) were measured using a Biotek Synergy 4 plate reader. […]
Readout name: TD50

Answered examples (2):
Exercise: Dear colleague, I am looking for the recorded TD50 of the following molecule: C[C@@H]1[C@H]2C[C@@H](C[C@H]1NC(=O)c1cc3ccccc3[nH]1)C2(C)C
Key: 11.3 µg/mL

Exercise: Dear colleague, I am looking for the recorded TD50 of the following molecule: O=C(NC12CC3CC(CC(C3)C1)C2)c1cc2ccccc2[nH]1 [Compound 5, N-(1-adamantyl)-1H-indole-2-carboxamide]
Key: >14.7 µg/mL

Further cases:
Exercise: Dear colleague, I am looking for the recorded TD50 of the following molecule: Cc1cc(C)c2cc(C(=O)N[C@@H]3C[C@@H]4C[C@H]([C@H]3C)C4(C)C)[nH]c2c1
Key: >16.2 µg/mL

Exercise: Dear colleague, I am looking for the recorded TD50 of the following molecule: Cc1cc(C)c2cc(C(=O)NC3CCCCCCC3)[nH]c2c1
Key: >14.9 µg/mL

Source: patent US10383848B2
